target.system: human B1R receptor (hB1R) (Homo sapiens, UniProt P46663)
Construct: host or cells: CHO K1 cells
Sequence (P46663 whole entry): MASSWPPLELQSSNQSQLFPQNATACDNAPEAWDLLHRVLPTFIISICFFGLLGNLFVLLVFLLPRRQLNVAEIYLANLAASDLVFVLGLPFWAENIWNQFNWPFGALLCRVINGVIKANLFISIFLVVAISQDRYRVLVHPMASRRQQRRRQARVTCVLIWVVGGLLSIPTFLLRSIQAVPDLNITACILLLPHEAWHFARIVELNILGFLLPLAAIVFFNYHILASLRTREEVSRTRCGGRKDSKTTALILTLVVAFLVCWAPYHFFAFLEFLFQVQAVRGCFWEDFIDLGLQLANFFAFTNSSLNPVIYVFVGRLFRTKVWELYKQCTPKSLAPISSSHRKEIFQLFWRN
assay.overview: FLIPR Ca2+ assay (Fluo-4) on CHO K1 cells stably transfected with the human B1R gene
Format: cell-based
assay.context: CHO-K1; test substance 10 μM; agonist Lys-Des-Arg9-bradykinin 0.5 nM; % inhibition compared to the maximum achievable inhibition
Classify as follows. Reported inhibition at 10 µM greater than or equal to 90%: true. Reported inhibition at 10 µM below: false.

Take a look at these entries with their results.
COc1cc(C)c(S(=O)(=O)N2CCCCC2COCC(=O)N2CCn3c(CN4CCN(C)CC4)ccc3C2)c(C)c1 (stereo not shown) [(4)] :: true
COc1cc(C)c(S(=O)(=O)N2CCCCC2COCC(=O)N2CCn3cccc3C2c2ccc(F)c(F)c2)c(C)c1 (stereo not shown) [(26)] :: false
COc1cc(C)c(S(=O)(=O)N2CCCCC2COCC(=O)N2CCn3cccc3C2c2ccc(C(F)(F)F)cc2F)c(C)c1 (stereo not shown) [(32)] :: false
Cc1cc(C)c(S(=O)(=O)N2CCCCC2COCC(=O)N2CCn3cccc3C2c2cccs2)c(C)c1 (stereo not shown) [(43)] :: true

Please check the record COc1cc(C)c(S(=O)(=O)N2CCCCC2CCCC(=O)N2CCn3c(Cc4cccnc4)ccc3C2)c(C)c1 (stereo not shown) [(105)] and state if its inhibition at 10 µM is at or above 90%.
false

---

Catalogue of inhibition at 10 µM values
target.system: B1R receptor of rats (rB1R) (Rattus norvegicus, UniProt P97583)
Construct: host or cells: CHO K1 cells
Sequence (P97583 whole entry): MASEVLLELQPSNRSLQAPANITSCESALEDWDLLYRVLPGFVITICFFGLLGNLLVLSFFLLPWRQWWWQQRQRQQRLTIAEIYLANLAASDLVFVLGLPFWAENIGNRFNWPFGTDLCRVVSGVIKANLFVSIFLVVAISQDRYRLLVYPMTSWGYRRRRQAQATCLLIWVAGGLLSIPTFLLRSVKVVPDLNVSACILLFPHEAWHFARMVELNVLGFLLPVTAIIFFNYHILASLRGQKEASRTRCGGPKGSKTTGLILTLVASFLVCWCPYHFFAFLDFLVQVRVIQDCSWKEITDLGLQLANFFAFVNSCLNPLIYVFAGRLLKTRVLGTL
assay.overview: FLIPR Ca2+ assay (Fluo-4) on CHO K1 cells stably transfected with the B1R gene of rats
Assay type: cell-based
assay.context: CHO-K1; test substance 10 μM; agonist Des-Arg9-bradykinin 100 nM; % inhibition compared to the maximum achievable inhibition
Quick note: give the figure in %, leave out the unit.

For orientation, consider the following solved cases.
COc1cc(C)c(S(=O)(=O)N2CCCCC2COCC(=O)N2CCn3c(ccc3-c3ccncc3)C2)c(C)c1 (stereo not drawn) :: 97
COc1cc(C)c(S(=O)(=O)N2CCCCC2COCC(=O)N2CCn3cccc3C2CCc2ccccc2)c(C)c1 (stereo not drawn) :: 102
Cc1cc(S(=O)(=O)N2CCCCC2CCC(=O)N2CCn3c(CN4CCCC4)ccc3C2)c(C)cc1Cl (stereo not drawn) :: 48

Test system B1R receptor of rats (rB1R) (Rattus norvegicus, UniProt P97583); read-out inhibition at 10 µM; what value for COc1ccc(C2c3cccn3CCN2C(=O)COCC2CCCCN2S(=O)(=O)c2c(C)cc(C)cc2C)cc1 (stereo not drawn) ?
99

Test system B1R receptor of rats (rB1R) (Rattus norvegicus, UniProt P97583); read-out inhibition at 10 µM; what value for COc1cc(C)c(S(=O)(=O)N2CCCCC2COCC(=O)N2CCn3c(CCCN4CCN(C)CC4)ccc3C2)c(C)c1 (stereo not drawn) ?
99

---

target.system: human B1R receptor (hB1R) (Homo sapiens, UniProt P46663)
Construct: host or cells: CHO K1 cells
assay.overview: FLIPR Ca2+ assay (Fluo-4) on CHO K1 cells stably transfected with the human B1R gene
Type: cell-based
assay.context: CHO-K1; test substance 10 μM; agonist Lys-Des-Arg9-bradykinin 0.5 nM; % inhibition compared to the maximum achievable inhibition
Catalogue of inhibition at 10 µM values
Quick note: give the figure in %, leave out the unit.

For orientation, consider the following solved cases.
CCC1c2cccn2CCN1C(=O)COCC1CCCCN1S(=O)(=O)c1c(C)cc(C)cc1C (stereo not shown) :: 98
Cc1cc(S(=O)(=O)N2CCCCC2CCC(=O)N2CCn3c(CN4CCN(C)CC4)ccc3C2)c(C)cc1Cl (stereo not shown) :: 100
COc1cc(C)c(S(=O)(=O)N2CCCCC2COCC(=O)N2CCn3c(CN4CCOCC4)ccc3C2)c(C)c1 (stereo not shown) :: 100
Cc1cc(C)c(S(=O)(=O)N2CCCCC2COCC(=O)N2CCn3c(CN4CCCC4)ccc3C2c2ccccc2)c(C)c1 (stereo not shown) :: 101
COc1ccc(C2c3cccn3CCN2C(=O)COCC2CCCCN2S(=O)(=O)c2c(C)cc(OC)cc2C)cc1 (stereo not shown) :: 101

GET /values?readout=inhibition at 10 µM&item= Cc1cc(C)c(S(=O)(=O)N2CCCCC2COCC(=O)N2CCn3cccc3C2C(C)C)c(C)c1 (stereo not shown)
102

GET /values?readout=inhibition at 10 µM&item= Cc1cc(C)c(S(=O)(=O)N2CCCCC2COCC(=O)N2CCn3c(CN(C)C)ccc3C2c2ccccc2)c(C)c1 (stereo not shown)
102

GET /values?readout=inhibition at 10 µM&item= COc1cc(C)c(S(=O)(=O)N2CCCCC2COCC(=O)N2CCn3cccc3C2c2cccnc2)c(C)c1 (stereo not shown)
100

GET /values?readout=inhibition at 10 µM&item= COc1cc(C)c(S(=O)(=O)N2CCCCC2CCC(=O)N2CCn3c(Cc4ccncc4)ccc3C2)c(C)c1 (stereo not shown)
72

GET /values?readout=inhibition at 10 µM&item= CCC1c2ccc(CN(C)C)n2CCN1C(=O)COCC1CCCCN1S(=O)(=O)c1c(C)cc(C)cc1C (stereo not shown)
102

GET /values?readout=inhibition at 10 µM&item= O=C(CC1CCCCN1S(=O)(=O)c1cccc(C(F)(F)F)c1)N1CCn2c(CCc3cccnc3)ccc2C1 (stereo not shown)
90

GET /values?readout=inhibition at 10 µM&item= COc1cc(C)c(S(=O)(=O)N2CCCCC2COCC(=O)N2CCn3cc(CCc4ccncc4)nc3C2)c(C)c1 (stereo not shown)
100

---

target.system: B1R receptor of rats (rB1R) (Rattus norvegicus)
Construct: host or cells: CHO K1 cells
assay.overview: FLIPR Ca2+ assay (Fluo-4) on CHO K1 cells stably transfected with the B1R gene of rats
Assay type: cell-based
assay.context: CHO-K1; test substance 10 μM; agonist Des-Arg9-bradykinin 100 nM; % inhibition compared to the maximum achievable inhibition
Catalogue of inhibition at 10 µM values
Show the value, then the unit it is measured in.

For orientation, consider the following solved cases.
Cc1cc(S(=O)(=O)N2CCCCC2CCC(=O)N2CCn3c(CCCN4CCCC4)ccc3C2)c(C)cc1Cl (stereo not shown) [(18)] :: 99%
CCC1c2ccc(CN(C)C)n2CCN1C(=O)COCC1CCCCN1S(=O)(=O)c1c(C)cc(OC)cc1C (stereo not shown) [(69)] :: 102%

GET /values?readout=inhibition at 10 µM&item= COc1cc(C)c(S(=O)(=O)N2CCCCC2COCC(=O)N2CCn3c(CN(C)C)ccc3C2c2cccs2)c(C)c1 (stereo not shown) [(68)]
103%

GET /values?readout=inhibition at 10 µM&item= Cc1cc(C)c(S(=O)(=O)N2CCCCC2COCC(=O)N2CCn3cccc3C2c2cccs2)c(C)c1 (stereo not shown) [(43)]
98%

---

target.system: B1R receptor of rats (rB1R) (Rattus norvegicus, UniProt P97583)
Construct: host or cells: CHO K1 cells
assay.overview: FLIPR Ca2+ assay (Fluo-4) on CHO K1 cells stably transfected with the B1R gene of rats
Assay type: cell-based
assay.context: CHO-K1; test substance 10 μM; agonist Des-Arg9-bradykinin 100 nM; % inhibition compared to the maximum achievable inhibition
Catalogue of inhibition at 10 µM values
Quick note: give the figure in %, leave out the unit.

For orientation, consider the following solved cases.
COc1cc(C)c(S(=O)(=O)N2CCCCC2COCC(=O)N2CCn3cccc3C2c2ccc(F)c(F)c2)c(C)c1 (stereo not shown) :: 98
O=C(CC1CCCCN1S(=O)(=O)c1cccc(C(F)(F)F)c1)N1CCn2c(CCc3ccncc3)ccc2C1 (stereo not shown) :: 75
Cc1cc(C)c(S(=O)(=O)N2CCCCC2COCC(=O)N2CCn3cccc3C2c2ccc(F)c(F)c2)c(C)c1 (stereo not shown) :: 100

Test system B1R receptor of rats (rB1R) (Rattus norvegicus, UniProt P97583); read-out inhibition at 10 µM; what value for Cc1cc(C)c(S(=O)(=O)N2CCCCC2COCC(=O)N2CCn3c(CN(C)C)ccc3C2Cc2ccccc2)c(C)c1 (stereo not shown) ?
102

Test system B1R receptor of rats (rB1R) (Rattus norvegicus, UniProt P97583); read-out inhibition at 10 µM; what value for CCC1c2cccn2CCN1C(=O)COC[C@@H]1CCCCN1S(=O)(=O)c1c(C)cc(OC)cc1C (stereo partly shown) ?
99

Test system B1R receptor of rats (rB1R) (Rattus norvegicus, UniProt P97583); read-out inhibition at 10 µM; what value for COc1cc(C)c(S(=O)(=O)N2CCCCC2CCCC(=O)N2CCn3c(CCc4ccncc4)ccc3C2)c(C)c1 (stereo not shown) ?
99

Test system B1R receptor of rats (rB1R) (Rattus norvegicus, UniProt P97583); read-out inhibition at 10 µM; what value for O=C(CC1CCCCN1S(=O)(=O)c1cccc(C(F)(F)F)c1)N1CCn2c(Cc3ccncc3)ccc2C1 (stereo not shown) ?
47
